Value source: patent US9920053B2

- targetSystem: human dopamine transporter (DAT) (Homo sapiens (Human))
- Sequence (Q01959 whole entry): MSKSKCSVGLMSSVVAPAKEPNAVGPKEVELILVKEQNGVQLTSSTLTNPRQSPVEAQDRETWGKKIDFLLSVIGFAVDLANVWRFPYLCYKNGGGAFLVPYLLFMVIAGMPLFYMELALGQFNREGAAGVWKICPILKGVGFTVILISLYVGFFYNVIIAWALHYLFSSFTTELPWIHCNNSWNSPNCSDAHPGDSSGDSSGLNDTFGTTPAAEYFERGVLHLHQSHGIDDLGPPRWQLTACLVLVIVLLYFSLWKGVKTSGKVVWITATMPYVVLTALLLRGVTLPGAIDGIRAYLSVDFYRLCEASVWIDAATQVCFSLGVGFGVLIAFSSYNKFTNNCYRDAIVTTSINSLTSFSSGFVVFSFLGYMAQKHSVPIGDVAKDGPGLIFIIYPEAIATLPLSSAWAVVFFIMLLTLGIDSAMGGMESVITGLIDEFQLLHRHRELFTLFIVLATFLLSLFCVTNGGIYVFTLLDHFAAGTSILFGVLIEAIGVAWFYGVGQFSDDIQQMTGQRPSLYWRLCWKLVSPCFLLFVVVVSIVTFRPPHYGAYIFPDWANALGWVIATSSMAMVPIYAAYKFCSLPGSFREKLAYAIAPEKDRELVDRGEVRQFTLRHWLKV
- protocolSummary: Scintillation Proximity Assay (SPA) for human DAT binding ([3H]WIN-35,428)
- settings: recombinant human DAT, CHO
Measured pIC50 DAT accompanies every entry in the list below.
Answer with a bare number; do not write a unit.

>  <chemicalString>
CC(C)(C)NCC1(O)CCN(c2nc(Oc3cccc(F)c3)cc(C(F)(F)F)n2)CC1

>  <recordedValue>
7.91

$$$$
>  <chemicalString>
CC(C)C(=O)NCC1(O)CCN(c2nc(Oc3cccc(F)c3)cc(C(F)(F)F)n2)CC1

>  <recordedValue>
7.84

$$$$
>  <chemicalString>
O=C(NCC1(O)CCN(c2nc(Oc3cccc(F)c3)cc(C(F)(F)F)n2)CC1)c1cnccn1

>  <recordedValue>
7.86

$$$$
>  <chemicalString>
NCC(=O)NCC1(O)CCN(c2nc(Oc3cccc(F)c3)cc(C(F)(F)F)n2)CC1

>  <recordedValue>
8.22

$$$$
>  <chemicalString>
NCC1(O)CCN(c2cc(F)c(F)c(Oc3cccc(F)c3)c2)CC1

>  <recordedValue>
8.02

$$$$

Q. If you can, please state the reported pIC50 DAT value of Fc1cccc(Oc2cc(C(F)(F)F)nc(N3CCc4nc[nH]c4C3)n2)c1 .
A. 7.90

Q. If you can, please state the reported pIC50 DAT value of OC1(CNC2CC2)CCN(c2nc(Oc3cccc(F)c3)cc(C(F)(F)F)n2)CC1 .
A. 8.13
